Parameter IC50: see the listing below.
Target: LK35.2-hPD-L1 cells / PE-labeled PD-1-Ig (Homo sapiens)
Construct: expressed in transfected cells; host or cells: LK35.2 mouse B cell line
Sequence (Q9NZQ7 19-290): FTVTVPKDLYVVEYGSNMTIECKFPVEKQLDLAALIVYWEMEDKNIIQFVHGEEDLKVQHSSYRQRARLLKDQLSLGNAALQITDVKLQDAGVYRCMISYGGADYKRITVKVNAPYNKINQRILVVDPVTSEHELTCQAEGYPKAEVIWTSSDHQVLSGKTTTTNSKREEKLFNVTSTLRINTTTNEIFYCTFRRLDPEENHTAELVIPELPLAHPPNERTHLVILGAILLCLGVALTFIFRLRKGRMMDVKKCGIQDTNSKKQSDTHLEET
Assay: LK35.2-hPD-L1 cell binding high-content screening assay
Format: cell-based
Conditions: cluster symbol; cell line of CBA not given (LK35.2-hPD-L1 or 293T-hPD-L1); read-out: CBA IC50 cluster
Positions of bridges follow the written chain, without caps; N, C: chain ends. Non-standard residues stand in square brackets, D forms with d. Residues, ends and D or L forms follow the SMILES beside them. cisHyp = O=C(O)[C@@H]1C[C@H](O)CN1; Hyp = O=C(O)[C@@H]1C[C@@H](O)CN1; NMeNle = CCCC[C@H](NC)C(=O)O; Pip = O=C(O)[C@@H]1CCCCN1; NMeA = CN[C@@H](C)C(=O)O; Orn = NCCC[C@H](N)C(=O)O; Dap = NC[C@H](N)C(=O)O

Compound	Endpoint name	Measured value
CCCC[C@H]1C(=O)N(C)[C@@H](CCCC)C(=O)N[C@@H](CCCNC(=N)N)C(=O)N[C@H](C(=O)NCC(N)=O)CSCC(=O)N[C@@H](Cc2ccc(O)cc2)C(=O)N(C)[C@@H](C)C(=O)N[C@@H](CCCN)C(=O)N2CCC[C@H]2C(=O)N[C@@H](C)C(=O)N[C@@H](CC(C)C)C(=O)N2C[C@@H](O)C[C@H]2C(=O)N[C@@H](Cc2c[nH]c3ccccc23)C(=O)N[C@@H](CO)C(=O)N[C@@H](Cc2c[nH]c3ccccc23)C(=O)N1C [Example 1146] ({CH2CO}-Y[NMeA][Orn]PAL[cisHyp]WSW[NMeNle][NMeNle]RCG-NH2; thioether N-14)	IC50	> 74.3 nM

**Q:** Look up IC50: CCCC[C@H]1C(=O)N(C)[C@@H](CCCC)C(=O)N[C@@H](CCCN)C(=O)N[C@H](C(=O)NCC(N)=O)CSCC(=O)N[C@@H](Cc2ccc(O)cc2)C(=O)N2CCCC[C@H]2C(=O)N[C@@H](CC(=O)O)C(=O)N2CCC[C@H]2C(=O)N[C@@H](CN)C(=O)N[C@@H](CC(C)C)C(=O)N2C[C@H](O)C[C@H]2C(=O)N[C@@H](Cc2c[nH]c3ccccc23)C(=O)N[C@@H](CO)C(=O)N[C@@H](Cc2c[nH]c3ccccc23)C(=O)N1C [Example 1235] ({CH2CO}-Y[Pip]DP[Dap]L[Hyp]WSW[NMeNle][NMeNle][Orn]CG-NH2; thioether N-14)
**A:** 0.158 to 4.71 nM
